The reported numbers originate from ChEMBL document CHEMBL1131914.

- system.tested: UDP-3-O-acyl-N-acetylglucosamine deacetylase (Escherichia coli K-12, UniProt P0A725)
- Sequence (P0A725 whole entry): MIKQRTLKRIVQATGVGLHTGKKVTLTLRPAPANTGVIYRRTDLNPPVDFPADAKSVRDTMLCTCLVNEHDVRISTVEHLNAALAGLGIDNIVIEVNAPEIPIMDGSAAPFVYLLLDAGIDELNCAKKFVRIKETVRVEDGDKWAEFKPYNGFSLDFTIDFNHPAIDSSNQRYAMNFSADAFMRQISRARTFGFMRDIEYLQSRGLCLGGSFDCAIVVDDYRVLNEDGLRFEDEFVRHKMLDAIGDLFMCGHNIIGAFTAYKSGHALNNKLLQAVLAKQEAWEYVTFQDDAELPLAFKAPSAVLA
- test.description: Inhibition of UDP-3-O-[R-3-hydroxymyristoyl]-GlcNAc deacetylase using coupled radiochemical assay (WAVE) in Escherichia coli strain JB 1104
- particulars: read-out: IC50
result.type: IC50 (nM)
Answers are plain numbers, in nM.

Some molecules with known IC50 results, for comparison:
1. CCCc1ccc(C2=N[C@@H](C(=O)NO)CO2)cc1 ... 100
2. Cc1ccccc1C1=NC(C(=O)NO)CO1 (configuration not stated) ... 2600
3. Cc1cccc(C2=NC(C(=O)NO)CO2)c1 (configuration not stated) ... 1100

Kindly consider the entry below.
Request: Tell me measured IC50 for O=C(NO)[C@H]1COC(c2ccccc2)=N1 please.
Result: 1500

====

- system.tested: UDP-3-O-acyl-N-acetylglucosamine deacetylase (Escherichia coli K-12, UniProt P0A725)
- Sequence (P0A725 whole entry): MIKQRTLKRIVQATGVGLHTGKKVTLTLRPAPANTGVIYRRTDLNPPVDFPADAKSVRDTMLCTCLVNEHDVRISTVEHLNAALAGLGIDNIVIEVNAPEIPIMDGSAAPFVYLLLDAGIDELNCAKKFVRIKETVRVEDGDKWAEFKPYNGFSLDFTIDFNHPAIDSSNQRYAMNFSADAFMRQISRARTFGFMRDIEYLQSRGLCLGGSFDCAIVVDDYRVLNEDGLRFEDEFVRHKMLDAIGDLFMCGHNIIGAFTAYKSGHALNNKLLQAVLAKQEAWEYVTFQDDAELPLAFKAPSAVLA
- test.description: Inhibition of UDP-3-O-[R-3-hydroxymyristoyl]-GlcNAc deacetylase using coupled radiochemical assay (WAVE) in Escherichia coli strain JB 1104
- particulars: read-out: IC50
pIC50: −log10 of the molar value.
Rule: pIC50 of 6 or more gives yes; anything lower gives no.

Worked examples, 5 molecules total:
1. O=C(NO)[C@H]1COC(c2ccco2)=N1 ... no
2. CCc1ccc(C2=N[C@@H](C(=O)NO)CO2)cc1 ... yes
3. Cc1ccc(C2=NC(C(=O)NO)CO2)cc1 (stereo not drawn) ... no
4. O=C(NO)[C@@H]1COC(c2ccccc2)=N1 ... no
5. O=C(NO)C1COC(c2ccccc2)=N1 (stereo not drawn) ... no

Request: Is reported pIC50 greater than or equal to 6 here: COC(=O)C1COC(c2ccccc2)=N1 (stereo not drawn)
Result: no

Request: Is reported pIC50 greater than or equal to 6 here: COc1ccc(C2=N[C@@H](C(=O)NO)CO2)cc1
Result: yes

Request: Is reported pIC50 greater than or equal to 6 here: CCCc1cccc(C2=N[C@@H](C(=O)NO)CO2)c1
Result: yes
